# protocolText: In vivo pharmacokinetics, plasma and brain, IP 10 mg/kg
# Set-up: species or system C57BL/6 mice
# conditionSummary: male, C57BL/6; Plasma IP 10 mg/kg fed, mouse, mean; read-out: Cmax (ng/mL)
valueType: Cmax (ng/mL)
Unit ng/mL implied. Number only.

COc1ccc(OCC2c3cccn3CC(=O)N2Cc2cccc(C(F)(F)F)c2)cc1 (racemic) [1180-447]    635

Let us move to another entry and its Cmax.
// query Cmax value for entry COc1ccc(OCC2c3cccn3CCN2C(=O)c2cccc(Cl)c2)cc1 (centres unmarked) [1180-420]
841

====

# protocolText: In vivo pharmacokinetics, plasma and brain, IP 10 mg/kg
# Design: species or system C57BL/6 mice
# conditionSummary: male, C57BL/6; Plasma IP 10 mg/kg fed, mouse, mean
This listing pairs compounds with measured AUC(0-t).
Unit ng·h/mL implied. Number only.

// query AUC(0-t) value for entry COc1ccc(OCC2c3cccn3CCN2C(=O)c2cccc(Cl)c2)cc1 (centres unmarked)
792

// query AUC(0-t) value for entry COc1ccc(OCC2c3cccn3CC(=O)N2Cc2cccc(C(F)(F)F)c2)cc1 (racemic)
715

====

# protocolText: In vivo pharmacokinetics, plasma and brain, IP 10 mg/kg
# Set-up: species or system C57BL/6 mice
# conditionSummary: male, C57BL/6, plasma; IP 10 mg/kg, mouse; read-out: half-lives in plasma
This listing pairs compounds with measured half-life.

COc1ccc(OCC2c3cccn3CCN2C(=O)c2cccc(Cl)c2)cc1 (centres unmarked)    > 1 h

Let us move to another entry and its half-life.
// query half-life value for entry COc1ccc(OCC2c3cccn3CC(=O)N2Cc2cccc(C(F)(F)F)c2)cc1 (racemic)
> 1 h

====

# protocolText: In vivo pharmacokinetics, plasma and brain, IP 10 mg/kg
# Design: species or system C57BL/6 mice
# conditionSummary: male, C57BL/6; Brain IP 10 mg/kg fed, mouse, mean; read-out: Cmax (ng/g)
# Description: In vivo analysis of 1180-420 and 1180-447 for pharmacokinetic properties: In vivo analysis of 1180-420 and 1180-447 for pharmacokinetic properties was performed by Pharmaron (Irvine, Calif.). […] The mouse is placed head down at a 45-degree angle to facilitate blood removal. After perfusion, the brain ventricle is opened, and the brain is removed. […] The mixtures were then vortexed for 30 seconds and subsequently centrifuged (˜4000 rpm) for 15 minutes.
This listing pairs compounds with measured Cmax.
Unit ng/g implied. Number only.

COc1ccc(OCC2c3cccn3CCN2C(=O)c2cccc(Cl)c2)cc1 (centres unmarked)    1410

Let us move to another entry and its Cmax.
// query Cmax value for entry COc1ccc(OCC2c3cccn3CC(=O)N2Cc2cccc(C(F)(F)F)c2)cc1 (racemic)
1670

====

# protocolText: In vivo pharmacokinetics, plasma and brain, IP 10 mg/kg
# Set-up: species or system C57BL/6 mice
# conditionSummary: male, C57BL/6; Brain IP 10 mg/kg fed, mouse, mean
This listing pairs compounds with measured Tmax.
Param answer (str): number followed by unit.

COc1ccc(OCC2c3cccn3CC(=O)N2Cc2cccc(C(F)(F)F)c2)cc1 (racemic) [1180-447]    30 min

// query Tmax value for entry COc1ccc(OCC2c3cccn3CCN2C(=O)c2cccc(Cl)c2)cc1 (centres unmarked) [1180-420]
18 min

====

# systemName: rat GluN1/GluN2D (Rattus norvegicus, UniProt P35439+Q62645)
# Sequence (Q62645 28-1323, other chains not shown): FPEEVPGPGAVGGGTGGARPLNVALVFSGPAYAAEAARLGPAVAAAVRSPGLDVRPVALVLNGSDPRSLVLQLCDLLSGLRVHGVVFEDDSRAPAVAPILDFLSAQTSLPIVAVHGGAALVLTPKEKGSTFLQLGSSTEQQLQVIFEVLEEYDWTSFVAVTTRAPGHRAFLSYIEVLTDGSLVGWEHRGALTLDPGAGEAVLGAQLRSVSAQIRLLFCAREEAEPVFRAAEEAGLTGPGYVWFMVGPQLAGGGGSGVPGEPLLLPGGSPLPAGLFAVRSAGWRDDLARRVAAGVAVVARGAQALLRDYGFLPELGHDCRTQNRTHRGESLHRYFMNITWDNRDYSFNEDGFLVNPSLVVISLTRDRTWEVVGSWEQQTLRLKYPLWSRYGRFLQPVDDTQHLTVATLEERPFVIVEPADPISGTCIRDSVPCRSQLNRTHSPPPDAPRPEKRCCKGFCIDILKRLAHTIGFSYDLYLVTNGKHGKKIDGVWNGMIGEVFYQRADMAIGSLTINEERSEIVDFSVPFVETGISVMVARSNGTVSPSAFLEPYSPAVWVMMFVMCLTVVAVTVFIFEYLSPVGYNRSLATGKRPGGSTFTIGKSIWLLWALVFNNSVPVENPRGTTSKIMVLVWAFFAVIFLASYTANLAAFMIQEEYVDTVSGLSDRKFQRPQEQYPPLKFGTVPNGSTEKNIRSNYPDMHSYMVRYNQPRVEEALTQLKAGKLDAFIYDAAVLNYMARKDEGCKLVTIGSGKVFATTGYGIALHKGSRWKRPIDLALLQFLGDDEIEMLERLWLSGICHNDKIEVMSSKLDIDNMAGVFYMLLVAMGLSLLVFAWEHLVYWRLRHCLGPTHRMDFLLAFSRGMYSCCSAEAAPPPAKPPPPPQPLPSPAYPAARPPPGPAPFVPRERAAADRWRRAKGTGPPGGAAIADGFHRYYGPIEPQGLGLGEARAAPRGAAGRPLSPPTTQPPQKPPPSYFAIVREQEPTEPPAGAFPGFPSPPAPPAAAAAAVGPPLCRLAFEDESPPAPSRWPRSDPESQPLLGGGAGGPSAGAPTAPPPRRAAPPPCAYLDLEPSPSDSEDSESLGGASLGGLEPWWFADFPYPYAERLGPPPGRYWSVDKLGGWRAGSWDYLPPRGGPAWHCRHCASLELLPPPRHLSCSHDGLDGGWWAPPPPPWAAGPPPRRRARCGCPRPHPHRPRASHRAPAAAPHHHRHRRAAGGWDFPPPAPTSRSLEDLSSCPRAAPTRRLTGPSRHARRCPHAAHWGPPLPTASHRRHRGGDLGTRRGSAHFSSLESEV
# protocolText: Two-electrode voltage clamp recordings in Xenopus laevis oocytes, potentiation of GluN1/GluN2D
# Assay type: cell-based
# conditionSummary: read-out: GluN2D EC50
This listing pairs molecules with measured pEC50.
Please express pEC50 as -log10 of the molar concentration.

Examples with their reported pEC50 follow.
COc1ccc(OCC2c3ccsc3CCN2C(=O)c2cccc(Cl)c2)cc1 (stereo not shown)    5.33
COc1ccc(OCC2c3occc3CCN2C(=O)c2cccc(Cl)c2)cc1 (stereo not shown)    5.02

// query pEC50 value for entry COc1ccc(OCC2c3cnsc3CCN2C(=O)c2cccc(Cl)c2)cc1 (stereo not shown)
4.82

// query pEC50 value for entry COc1ccc(OCC2c3sccc3CCN2C(=O)c2cccc(Cl)c2)cc1 (stereo not shown)
5.46

// query pEC50 value for entry COc1ccc(OCC2c3cccn3CCN2C(=O)c2cccc(Cl)c2)cc1 (stereo not shown)
5.64

// query pEC50 value for entry COc1ccc(OCC2c3sccc3CCN2C(=O)/C=C/C(F)(F)F)cc1 (stereo not shown)
4.89

// query pEC50 value for entry COc1ccc(OCC2c3sccc3CCN2C(=O)c2ccc(Cl)s2)cc1 (stereo not shown)
5.13

Just for reference, patent US11738008B2 is where these values come from.
